- experimental target: human GnRH receptor (Homo sapiens, UniProt P30968)
- assay: IP-One HTRF assay with buserelin (at EC80) stimulation
- condition label: CHO cells stably expressing human GnRH receptor, read-out: Potency in IP-One HTRF assay, given as IC50
- Source text: 2.3. IP-One HTRF® Assay By using homogenous time-resolved fluorescence resonance energy transfer (HTRF), the generation of one component of the GnRH—R signalling cascade can be measured. […] In cell lysates, IP1 can be detected via an antibody-based HTRF detection technology, where IP1 can displace the FRET acceptor IP1-d2 from binding by Terbium-labelled anti-IP1 antibody as donor resulting in a signal decrease. […]
Provide the recorded pIC50 for the entries that follow.
Kindly note that pIC50 refers to -log10 of the concentration in mol/L and answer with the value alone.

Complete the entry with pIC50 for O=C(Nc1ccc2c(c1)C1(CCS(=O)(=O)CC1)C(C1CC1)N2S(=O)(=O)c1ccc(F)cc1)C1CC1 (stereo not drawn) [Example 97] 5.65

Provide one value: measured pIC50 of O=C(O)c1cccc(S(=O)(=O)N2c3ccc(C(=O)NCc4ccccc4Cl)cc3C3(CCS(=O)(=O)CC3)C2C2CC2)c1 (single isomer, unassigned) [Example 61.1] 7.08

State, in one line, measured pIC50 of O=C(NCc1ncc(F)cc1Cl)c1ccc2c(c1)C1(CCS(=O)(=O)CC1)C(C1CC1)N2S(=O)(=O)c1ccc(F)cc1 (single isomer, unassigned) [Example 17.1] 6.86

* * *

- experimental target: human GnRH receptor (Homo sapiens, UniProt P30968)
- Sequence (P30968 1-328): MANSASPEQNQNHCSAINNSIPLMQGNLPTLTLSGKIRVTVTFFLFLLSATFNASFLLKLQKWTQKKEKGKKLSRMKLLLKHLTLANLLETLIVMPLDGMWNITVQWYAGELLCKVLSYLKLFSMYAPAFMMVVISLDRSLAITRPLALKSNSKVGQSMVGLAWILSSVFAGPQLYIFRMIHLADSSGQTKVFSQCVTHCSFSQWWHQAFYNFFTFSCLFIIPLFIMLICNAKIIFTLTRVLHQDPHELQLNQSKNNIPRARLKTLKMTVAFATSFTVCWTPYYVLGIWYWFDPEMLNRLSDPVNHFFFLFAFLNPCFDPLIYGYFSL
- assay: IP-One HTRF assay with buserelin (at EC80) stimulation
- condition label: CHO cells stably expressing human GnRH receptor, read-out: Potency in IP-One HTRF assay, given as IC50
observation type: pIC50
Reminder that pIC50 means the negative base-10 logarithm of the concentration expressed in mol/L.

Indicate the recorded pIC50 value for this molecule: NC(=O)c1cccc(NC(=O)c2ccc3c(c2)C2(CCS(=O)(=O)CC2)C(C2CC2)N3S(=O)(=O)c2ccc(F)cc2)c1 (single isomer, unassigned) [Example 51.1] 7.10

Identify measured pIC50 corresponding to CS(=O)(=O)c1cccc(NC(=O)c2ccc3c(c2)C2(CCS(=O)(=O)CC2)C(C2CC2)N3S(=O)(=O)c2ccc(F)cc2)c1 (single isomer, unassigned) [Example 23.1] 5.73

Please give the documented pIC50 of O=C(Nc1ccc2c(c1)C1(CCS(=O)(=O)CC1)C(C1CC1)N2S(=O)(=O)c1ccc(F)cc1)C1CCCC1 (stereo not drawn) 6.52

* * *

Record form. Attribute: IC50. Fill in for each entry.
- experimental target: human GnRH receptor (Homo sapiens, UniProt P30968)
- Sequence (P30968 1-328): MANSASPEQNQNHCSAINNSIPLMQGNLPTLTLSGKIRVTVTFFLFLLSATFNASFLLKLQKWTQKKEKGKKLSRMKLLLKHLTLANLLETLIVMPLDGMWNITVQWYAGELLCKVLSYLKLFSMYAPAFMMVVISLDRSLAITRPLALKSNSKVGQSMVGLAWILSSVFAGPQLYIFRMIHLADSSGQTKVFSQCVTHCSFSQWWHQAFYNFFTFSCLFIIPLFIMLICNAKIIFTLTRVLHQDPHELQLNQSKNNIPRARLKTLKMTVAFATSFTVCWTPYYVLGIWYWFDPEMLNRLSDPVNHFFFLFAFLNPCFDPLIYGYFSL
- assay: IP-One HTRF assay with buserelin (at EC80) stimulation
- condition label: CHO cells stably expressing human GnRH receptor, read-out: Potency in IP-One HTRF assay, given as IC50
# number only, unit nM dropped from output

Input Cc1cccnc1CNC(=O)c1ccc2c(c1)C1(CCS(=O)(=O)CC1)C(C1CC1)N2S(=O)(=O)c1ccc(F)cc1 (stereo not shown) [Example 31] , output reported IC50. 503

Given COc1cccc(S(=O)(=O)N2c3ccc(C(=O)Nc4cccc(C(=O)O)c4)cc3C3(CCS(=O)(=O)CC3)C2C2CC2)c1 (stereo not shown) [Example 50] , respond with its IC50. 54

Provide one value: measured IC50 of COc1cccc(S(=O)(=O)N2c3ccc(C(=O)NCc4ncccc4F)cc3C3(CCS(=O)(=O)CC3)C2C2CC2)c1 (stereo not shown) [Example 53] 617

Determine from records and report IC50 for Cc1cccnc1CNC(=O)c1ccc2c(c1)C1(CCS(=O)(=O)CC1)C(C1CC1)N2S(=O)(=O)c1ccc(F)cc1 (single isomer, unassigned) [Example 31.1] 266

The reported measurements were obtained from patent US20140357655A1.
